Origin of values: patent US20220267458A1

- target desc: T1, human GITR-His (human, UniProt Q9Y5U5 26-161)
- T1 construct: Bought from Acro biosystems; also called GITR-His (Acro biosystems); antigen GITR-His
- T1 sequence: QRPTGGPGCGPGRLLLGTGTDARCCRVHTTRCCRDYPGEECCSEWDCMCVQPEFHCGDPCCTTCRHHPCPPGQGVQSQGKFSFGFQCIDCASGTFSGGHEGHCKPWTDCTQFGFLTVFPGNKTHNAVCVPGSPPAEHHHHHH
- assay summary: ForteBio BLI, antibody on AHQ tip, human GITR-His 100 nM in solution, 1:1 model
- Procedure: (2) Experimental procedure: 100 μl of SD buffer and antibodies (hcIgG-02, hcIgG-03, hcIgG-04, hcIgG-07, hcIgG-09, hcIgG-10, hcIgG-16 and hcIgG-20, control antibody), GITR-His (Acro biosystems) were added to a 96-well half-volume black polystyrene microplate. […]
koff overview
measured parameter: koff (s⁻¹)

binder: hcIgG-07 (antibody, V domains shown, also called heavy-chain antibody of Nb-07) VH: QVQLQESGGGLVQAGGSLKLSCTVSGFAFGSSHMSWVRRAPGKGLEWVSTIHSGGGFGDYANSVQGRFTISRDVAKNTLYLQMNSLKPEDTAIYYCALATDWRKPPGQGTQVTVSS
measured parameter: koff
value: 0.00099

binder: hcIgG-02 (antibody, V domains shown, also called heavy-chain antibody of Nb-02) VH: QVQLQESGGGSVQAGGSLRLSCAASRDTYTRYFMGWFRQTPGKEGEGVAVLLPGGDYTFYADSVKGRFTITQDSAKNTVYLQMNSLKPEDTAMYYCAADVTVGSRWSQASNYNYWGQGTQVTVSS
measured parameter: koff
value: 0.00214

binder: hcIgG-20 (antibody, V domains shown, also called heavy-chain antibody of Nb-20) VH: QVQLQESGGGSVQAGGSLRLSCASSGYSRTSRWMAWFRQAPGKEREGVAAIYTGGSSTLYANSMADRVTISQDNAKNTVYLRMNNLKPEDTAMYYCAADKLAGDFWLVDRWRAWGQGTQVTVSS
measured parameter: koff
value: 0.000646

binder: hcIgG-03 (antibody, V domains shown, also called heavy-chain antibody of Nb-03) VH: QVQLQESGGGSVQAGGSLRLSCAASGYTYSGYCMGWFRQAPGKEHEGVASIVSGLGRPYYADSVKGRFTISQDNAKNTVYLQMNSLKPEDTAMYYCAAEWATKLCSEIPATEWDYWGQGTQVTVSS
measured parameter: koff
value: 0.00172

binder: hcIgG-09 (antibody, V domains shown, also called heavy-chain antibody of Nb-09) VH: QVQLQESGGGLVQPGGSLRLSCGASGFTFSSTAMWWFRQAPGKGLEWVSSITSDVSGTYYADSVQGRFTISRDNGKNTVYLQMNSLRSEDTALYYCATSCGFSGGTWSCKYRGQGTQVTVSS
measured parameter: koff
value: 0.000487

binder: hcIgG-04 (antibody, V domains shown, also called heavy-chain antibody of Nb-04) VH: QVQLQESGGGSVQAGGSLRLSCTASGFTVDDSGMGWYRQAPGNECELVSTISSDGSTYYADSVKGRFTISQDNAKNTVYLQMNSLKPEDTAVYYCAAPRVGVGWVRPCDYEYNYWGQGTQVTVSS
measured parameter: koff
value: 0.00202

binder: hcIgG-16 (antibody, V domains shown, also called heavy-chain antibody of Nb-16) VH: QVQLQESGGGSVQAGGSLRLSCAASGYTYNKYSWGWFRQAPGKEREGVAGIDSDGSTSYADSVKGRFTISKDNTKNTLYLQMNSLKPEDTAMYYCAASDWVSAIQALGVLAVRPYEYWGQGTQVTVSS
measured parameter: koff
value: 0.00114

binder: hcIgG-10 (antibody, V domains shown, also called heavy-chain antibody of Nb-10) VH: QVQLQESGGGLVQPGGSLRLSCAASGFAFGSSHMSWVRRAPGKGLEWVSTIHSGGGFGDYANSVQGRFTISRDVAKNTLYLQMNSLKPEDTAIYYCALATDWRKPPGQGTQVTVSS
measured parameter: koff
value: 0.000742
